# System: human cervix carcinoma (HeLa) cells
# ASSAY TEXT: Cytostatic activity, HeLa cell proliferation
# Type: cell-based
# RUN CONDITIONS: mean ± SD of three experiments; highest concentration tested 250 µM; 4 days; read-out: Toxicity (IC50) HeLa
pIC50: −log10 of the molar value.
The label depends only on pIC50: 1 if it is at least 4, 0 if it is smaller.

[[record]]
compound = "C#Cc1ccc(C=Cc2ccc(NC(=O)CNC(=O)C3NC(=O)C4NC(=O)C(NC(=O)C5NC(=O)C(CC(N)=O)NC(=O)C(NC(=O)C(CC(C)C)NC)C(O)c6ccc(c(Cl)c6)Oc6cc5cc(c6OC5OC(CO)C(O)C(O)C5OC5CC(C)(N)C(O)C(C)O5)Oc5ccc(cc5Cl)C4O)c4ccc(O)c(c4)-c4c(O)cc(O)cc43)cc2)cc1 (stereo not drawn) [Vanc-R]"
discrete_label = 1

[[record]]
compound = "CNC(CC(C)C)C(=O)NC1C(=O)NC(CC(N)=O)C(=O)NC2C(=O)NC3C(=O)NC(C(=O)NC(C(=O)NCC(=O)Nc4ccc(-c5cnnn5C5OC(COC(C)=O)C(OC(C)=O)C(OC(C)=O)C5OC(C)=O)cc4)c4cc(O)cc(O)c4-c4cc3ccc4O)C(O)c3ccc(c(Cl)c3)Oc3cc2cc(c3OC2OC(CO)C(O)C(O)C2OC2CC(C)(N)C(O)C(C)O2)Oc2ccc(cc2Cl)C1O (stereo not drawn) [Vanc-78]"
discrete_label = 1

[[record]]
compound = "CNC(CC(C)C)C(=O)NC1C(=O)NC(CC(N)=O)C(=O)NC2C(=O)NC3C(=O)NC(C(=O)NC(C(=O)NCC(=O)Nc4ccc(C#CC5CCCC5)cc4)c4cc(O)cc(O)c4-c4cc3ccc4O)C(O)c3ccc(c(Cl)c3)Oc3cc2cc(c3OC2OC(CO)C(O)C(O)C2OC2CC(C)(N)C(O)C(C)O2)Oc2ccc(cc2Cl)C1O (stereo not drawn) [Vanc-69]"
discrete_label = 1

[[record]]
compound = "CCc1ccc(NC(=O)CNC(=O)[C@H]2NC(=O)[C@H]3NC(=O)[C@H](NC(=O)[C@@H]4NC(=O)[C@H](CC(N)=O)NC(=O)[C@H](NC(=O)[C@@H](CC(C)C)NC)[C@H](O)c5ccc(c(Cl)c5)Oc5cc4cc(c5O[C@@H]4O[C@H](CO)[C@@H](O)[C@H](O)[C@H]4O[C@H]4C[C@](C)(N)[C@H](O)[C@H](C)O4)Oc4ccc(cc4Cl)[C@H]3O)c3ccc(O)c(c3)-c3c(O)cc(O)cc32)cc1 [Vanc-13]"
discrete_label = 0

[[record]]
compound = "CNC(CC(C)C)C(=O)NC1C(=O)NC(CC(N)=O)C(=O)NC2C(=O)NC3C(=O)NC(C(=O)NC(C(=O)NCC(=O)Nc4ccc(O)cc4)c4cc(O)cc(O)c4-c4cc3ccc4O)C(O)c3ccc(c(Cl)c3)Oc3cc2cc(c3OC2OC(CO)C(O)C(O)C2OC2CC(C)(N)C(O)C(C)O2)Oc2ccc(cc2Cl)C1O (stereo not drawn) [Vanc-1]"
discrete_label = 1

[[record]]
compound = "CNC(CC(C)C)C(=O)NC1C(=O)NC(CC(N)=O)C(=O)NC2C(=O)NC3C(=O)NC(C(=O)NC(C(=O)NCCCNC(=O)c4cc5ccccc5s4)c4cc(O)cc(O)c4-c4cc3ccc4O)C(O)c3ccc(c(Cl)c3)Oc3cc2cc(c3OC2OC(CO)C(O)C(O)C2OC2CC(C)(N)C(O)C(C)O2)Oc2ccc(cc2Cl)C1O (stereo not drawn) [Vanc-26]"
discrete_label = 1


====

Measured MIC, listed per entry.
# Tested on: E. faecalis VRE 6
# ASSAY TEXT: MIC, broth microdilution, vancomycin-resistant E. faecalis VRE 6 (VanA)
# Type: cell-based, Enterococcus faecalis
# RUN CONDITIONS: Enterococcus faecalis VRE 6 (vancomycin-resistant); read-out: MIC
ENDPOINT: MIC (µM)

[[record]]
molecule = "CNC(CC(C)C)C(=O)NC1C(=O)NC(CC(N)=O)C(=O)NC2C(=O)NC3C(=O)NC(C(=O)NC(C(=O)NCCCNC(=O)c4cc5cc(F)ccc5[nH]4)c4cc(O)cc(O)c4-c4cc3ccc4O)C(O)c3ccc(c(Cl)c3)Oc3cc2cc(c3OC2OC(CO)C(O)C(O)C2OC2CC(C)(N)C(O)C(C)O2)Oc2ccc(cc2Cl)C1O (centres unmarked)"
meas_value = 3.13

[[record]]
molecule = "CN[C@H](CC(C)C)C(=O)N[C@H]1C(=O)N[C@@H](CC(N)=O)C(=O)N[C@H]2C(=O)N[C@H]3C(=O)N[C@H](C(=O)N[C@H](C(=O)NCCNC(=O)/C=C/c4cccc(OC)c4)c4cc(O)cc(O)c4-c4cc3ccc4O)[C@H](O)c3ccc(c(Cl)c3)Oc3cc2cc(c3O[C@@H]2O[C@H](CO)[C@@H](O)[C@H](O)[C@H]2O[C@H]2C[C@](C)(N)[C@H](O)[C@H](C)O2)Oc2ccc(cc2Cl)[C@H]1O"
meas_value = 3.13

[[record]]
molecule = "CN[C@H](CC(C)C)C(=O)N[C@H]1C(=O)N[C@@H](CC(N)=O)C(=O)N[C@H]2C(=O)N[C@H]3C(=O)N[C@H](C(=O)N[C@H](C(=O)NCC(=O)Nc4cc(OC)cc(OC)c4)c4cc(O)cc(O)c4-c4cc3ccc4O)[C@H](O)c3ccc(c(Cl)c3)Oc3cc2cc(c3O[C@@H]2O[C@H](CO)[C@@H](O)[C@H](O)[C@H]2O[C@H]2C[C@](C)(N)[C@H](O)[C@H](C)O2)Oc2ccc(cc2Cl)[C@H]1O"
meas_value = 6.25

[[record]]
molecule = "CN[C@H](CC(C)C)C(=O)N[C@H]1C(=O)N[C@@H](CC(N)=O)C(=O)N[C@H]2C(=O)N[C@H]3C(=O)N[C@H](C(=O)N[C@H](C(=O)O)c4cc(O)cc(O)c4-c4cc3ccc4O)[C@H](O)c3ccc(c(Cl)c3)Oc3cc2cc(c3O[C@@H]2O[C@H](CO)[C@@H](O)[C@H](O)[C@H]2O[C@H]2C[C@](C)(N)[C@H](O)[C@H](C)O2)Oc2ccc(cc2Cl)[C@H]1O"
meas_value = 200

[[record]]
molecule = "C#CCCC(=O)NCCCNC(=O)C1NC(=O)C2NC(=O)C(NC(=O)C3NC(=O)C(CC(N)=O)NC(=O)C(NC(=O)C(CC(C)C)NC)C(O)c4ccc(c(Cl)c4)Oc4cc3cc(c4OC3OC(CO)C(O)C(O)C3OC3CC(C)(N)C(O)C(C)O3)Oc3ccc(cc3Cl)C2O)c2ccc(O)c(c2)-c2c(O)cc(O)cc21 (centres unmarked)"
meas_value = 50

[[record]]
molecule = "CNC(CC(C)C)C(=O)NC1C(=O)NC(CC(N)=O)C(=O)NC2C(=O)NC3C(=O)NC(C(=O)NC(C(=O)NCCCNC(=O)c4ccc5cc(NS(=O)(=O)c6ccccc6)ccc5c4)c4cc(O)cc(O)c4-c4cc3ccc4O)C(O)c3ccc(c(Cl)c3)Oc3cc2cc(c3OC2OC(CO)C(O)C(O)C2OC2CC(C)(N)C(O)C(C)O2)Oc2ccc(cc2Cl)C1O (centres unmarked)"
meas_value = 3.13

[[record]]
molecule = "CN[C@H](CC(C)C)C(=O)N[C@H]1C(=O)N[C@@H](CC(N)=O)C(=O)N[C@H]2C(=O)N[C@H]3C(=O)N[C@H](C(=O)N[C@H](C(=O)NCCNC(=O)/C=C/c4ccc(F)cc4)c4cc(O)cc(O)c4-c4cc3ccc4O)[C@H](O)c3ccc(c(Cl)c3)Oc3cc2cc(c3O[C@@H]2O[C@H](CO)[C@@H](O)[C@H](O)[C@H]2O[C@H]2C[C@](C)(N)[C@H](O)[C@H](C)O2)Oc2ccc(cc2Cl)[C@H]1O"
meas_value = 1.56

[[record]]
molecule = "CN[C@H](CC(C)C)C(=O)N[C@H]1C(=O)N[C@@H](CC(N)=O)C(=O)N[C@H]2C(=O)N[C@H]3C(=O)N[C@H](C(=O)N[C@H](C(=O)NCCNC(=O)CC(c4ccccc4)c4ccccc4)c4cc(O)cc(O)c4-c4cc3ccc4O)[C@H](O)c3ccc(c(Cl)c3)Oc3cc2cc(c3O[C@@H]2O[C@H](CO)[C@@H](O)[C@H](O)[C@H]2O[C@H]2C[C@](C)(N)[C@H](O)[C@H](C)O2)Oc2ccc(cc2Cl)[C@H]1O"
meas_value = 6.25

[[record]]
molecule = "CN[C@H](CC(C)C)C(=O)N[C@H]1C(=O)N[C@@H](CC(N)=O)C(=O)N[C@H]2C(=O)N[C@H]3C(=O)N[C@H](C(=O)N[C@H](C(=O)NCCNC(=O)/C=C/c4ccc(NS(=O)(=O)c5ccc(Cl)cc5Cl)cc4)c4cc(O)cc(O)c4-c4cc3ccc4O)[C@H](O)c3ccc(c(Cl)c3)Oc3cc2cc(c3O[C@@H]2O[C@H](CO)[C@@H](O)[C@H](O)[C@H]2O[C@H]2C[C@](C)(N)[C@H](O)[C@H](C)O2)Oc2ccc(cc2Cl)[C@H]1O"
meas_value = 3.13

[[record]]
molecule = "CNC(CC(C)C)C(=O)NC1C(=O)NC(CC(N)=O)C(=O)NC2C(=O)NC3C(=O)NC(C(=O)NC(C(=O)NCC(=O)NC4c5ccccc5-c5ccccc54)c4cc(O)cc(O)c4-c4cc3ccc4O)C(O)c3ccc(c(Cl)c3)Oc3cc2cc(c3OC2OC(CO)C(O)C(O)C2OC2CC(C)(N)C(O)C(C)O2)Oc2ccc(cc2Cl)C1O (centres unmarked)"
meas_value = 1.56

[[record]]
molecule = "CN[C@H](CC(C)C)C(=O)N[C@H]1C(=O)N[C@@H](CC(N)=O)C(=O)N[C@H]2C(=O)N[C@H]3C(=O)N[C@H](C(=O)N[C@H](C(=O)NCC(=O)Nc4ccc(C)cc4Cl)c4cc(O)cc(O)c4-c4cc3ccc4O)[C@H](O)c3ccc(c(Cl)c3)Oc3cc2cc(c3O[C@@H]2O[C@H](CO)[C@@H](O)[C@H](O)[C@H]2O[C@H]2C[C@](C)(N)[C@H](O)[C@H](C)O2)Oc2ccc(cc2Cl)[C@H]1O"
meas_value = 12.5


Where these numbers come from: paper PMC6001238
